# Tested on: S. ruminantium
# Format: cell-based
# experimental.context: strain GA31; Table IV (separate study)
yes (1) means recorded Minimal Inhibitory Concentration (bioactivity data) is 20 or above; no (0) means it is below 20.

Query: Identify whether the reported Minimal Inhibitory Concentration (bioactivity data) of the following compound is 20 or greater: C=C(NC(=O)C(=C)NC(=O)C(=C)NC(=O)c1ccc2c(n1)-c1nc(oc1C)C(C)NC(=O)c1csc(n1)C(C)NC(=O)c1nc(oc1C)CNC(=O)C(C(C)C)NC(=O)c1csc-2n1)C(N)=O (stereo not drawn) [Antibiotic 10381x]
Response: no (0)

Query: Identify whether the reported Minimal Inhibitory Concentration (bioactivity data) of the following compound is 20 or greater: C=C(NC(=O)c1ccc2c(n1)-c1nc(oc1C)C(C)NC(=O)c1csc(n1)C(C)NC(=O)c1nc(oc1C)CNC(=O)C(C(C)C)NC(=O)c1csc-2n1)C(N)=O (stereo not drawn) [Antibiotic 10381w]
Response: no (0)

Query: Identify whether the reported Minimal Inhibitory Concentration (bioactivity data) of the following compound is 20 or greater: C=C(NC(=O)c1ccc2c(n1)-c1coc(n1)C(=C)NC(=O)C(=C)NC(=O)c1nc(oc1C)C(=CC)NC(=O)c1csc(n1)C(OC)NC(=O)c1nc(oc1C)C(=CC(C)O)NC(=O)C(C(C)O)NC(=O)c1csc-2n1)C(N)=O (stereo not drawn) [Antibiotic 10381y]
Response: no (0)

Query: Identify whether the reported Minimal Inhibitory Concentration (bioactivity data) of the following compound is 20 or greater: C=C1NC(=O)c2nc(oc2C)C(=CC)NC(=O)c2csc(n2)C(OC)NC(=O)c2nc(oc2C)C(=CC(C)O)NC(=O)C(C(C)O)NC(=O)c2csc(n2)-c2ccc(C(N)=O)nc2-c2coc(n2)C(=C)NC1=O (stereo not drawn) [Antibiotic 10381v]
Response: yes (1)

Query: Identify whether the reported Minimal Inhibitory Concentration (bioactivity data) of the following compound is 20 or greater: C=C(NC(=O)C(=C)NC(=O)C(=C)NC(=O)c1ccc2c(n1)-c1coc(n1)C(=C)NC(=O)C(=C)NC(=O)c1nc(oc1C)/C(=C/C)NC(=O)c1csc(n1)C(OC)NC(=O)c1nc(oc1C)/C(=C/C(C)O)NC(=O)[C@H]([C@@H](C)O)NC(=O)c1csc-2n1)C(N)=O (stereo partly drawn) [Antibiotic 10381b, sulfomycin I, reference compound]
Response: no (0)

Query: Identify whether the reported Minimal Inhibitory Concentration (bioactivity data) of the following compound is 20 or greater: C=C(NC(=O)C(=C)NC(=O)C(=C)NC(=O)c1ccc2c(n1)-c1coc(n1)C(=C)NC(=O)C(=C)NC(=O)c1nc(oc1C)C(=CC)NC(=O)c1csc(n1)CNC(=O)c1nc(oc1C)C(=CC(C)O)NC(=O)C(C(C)O)NC(=O)c1csc-2n1)C(N)=O (stereo not drawn) [Antibiotic 10381pre-b]
Response: yes (1)

---

# Tested on: L. multiparus
# Assay type: cell-based
# experimental.context: strain 40; Table IV (separate study)
Would you kindly list Minimal Inhibitory Concentration (bioactivity data) for each of these compounds?

# example entries with known answers
[[record]]
compound = "C=C(NC(=O)C(=C)NC(=O)C(=C)NC(=O)c1ccc2c(n1)-c1nc(oc1C)C(C)NC(=O)c1csc(n1)C(C)NC(=O)c1nc(oc1C)CNC(=O)C(C(C)C)NC(=O)c1csc-2n1)C(N)=O (stereo not drawn) [Antibiotic 10381x]"
reported_value = "> 100"

[[record]]
compound = "C=C(NC(=O)C(=C)NC(=O)C(=C)NC(=O)c1ccc2c(n1)-c1coc(n1)C(=C)NC(=O)C(=C)NC(=O)c1nc(oc1C)/C(=C/C)NC(=O)c1csc(n1)C(OC)NC(=O)c1nc(oc1C)/C(=C/C(C)O)NC(=O)[C@H]([C@@H](C)O)NC(=O)c1csc-2n1)C(N)=O (stereo partly drawn) [Antibiotic 10381b, sulfomycin I, reference compound]"
reported_value = 1.6

[[record]]
compound = "C=C(NC(=O)c1ccc2c(n1)-c1coc(n1)C(=C)NC(=O)C(=C)NC(=O)c1nc(oc1C)C(=CC)NC(=O)c1csc(n1)C(OC)NC(=O)c1nc(oc1C)C(=CC(C)O)NC(=O)C(C(C)O)NC(=O)c1csc-2n1)C(N)=O (stereo not drawn) [Antibiotic 10381y]"
reported_value = 12.5

[[record]]
compound = "C=C(NC(=O)c1ccc2c(n1)-c1nc(oc1C)C(C)NC(=O)c1csc(n1)C(C)NC(=O)c1nc(oc1C)CNC(=O)C(C(C)C)NC(=O)c1csc-2n1)C(N)=O (stereo not drawn) [Antibiotic 10381w]"
reported_value = "> 100"

[[record]]
compound = "C=C1NC(=O)c2nc(oc2C)C(=CC)NC(=O)c2csc(n2)C(OC)NC(=O)c2nc(oc2C)C(=CC(C)O)NC(=O)C(C(C)O)NC(=O)c2csc(n2)-c2ccc(C(N)=O)nc2-c2coc(n2)C(=C)NC1=O (stereo not drawn) [Antibiotic 10381v]"
reported_value = "> 100"


Kindly consider the entry below.
Query: Name the recorded Minimal Inhibitory Concentration (bioactivity data) of the compound listed here: C=C(NC(=O)C(=C)NC(=O)C(=C)NC(=O)c1ccc2c(n1)-c1coc(n1)C(=C)NC(=O)C(=C)NC(=O)c1nc(oc1C)C(=CC)NC(=O)c1csc(n1)CNC(=O)c1nc(oc1C)C(=CC(C)O)NC(=O)C(C(C)O)NC(=O)c1csc-2n1)C(N)=O (stereo not drawn) [Antibiotic 10381pre-b]
Response: > 100

---

# Test system: R. amylophilus
# Type: cell-based
# experimental.context: strain H18; Table IV (separate study)
Would you kindly list Minimal Inhibitory Concentration (bioactivity data) for each of these compounds?

[[record]]
compound = "C=C(NC(=O)C(=C)NC(=O)C(=C)NC(=O)c1ccc2c(n1)-c1coc(n1)C(=C)NC(=O)C(=C)NC(=O)c1nc(oc1C)/C(=C/C)NC(=O)c1csc(n1)C(OC)NC(=O)c1nc(oc1C)/C(=C/C(C)O)NC(=O)[C@H]([C@@H](C)O)NC(=O)c1csc-2n1)C(N)=O (stereo partly drawn) [Antibiotic 10381b, sulfomycin I, reference compound]"
reported_value = 1.6

[[record]]
compound = "C=C1NC(=O)c2nc(oc2C)C(=CC)NC(=O)c2csc(n2)C(OC)NC(=O)c2nc(oc2C)C(=CC(C)O)NC(=O)C(C(C)O)NC(=O)c2csc(n2)-c2ccc(C(N)=O)nc2-c2coc(n2)C(=C)NC1=O (stereo not drawn) [Antibiotic 10381v]"
reported_value = 3.1

[[record]]
compound = "C=C(NC(=O)C(=C)NC(=O)C(=C)NC(=O)c1ccc2c(n1)-c1coc(n1)C(=C)NC(=O)C(=C)NC(=O)c1nc(oc1C)C(=CC)NC(=O)c1csc(n1)CNC(=O)c1nc(oc1C)C(=CC(C)O)NC(=O)C(C(C)O)NC(=O)c1csc-2n1)C(N)=O (stereo not drawn) [Antibiotic 10381pre-b]"
reported_value = "> 100"

[[record]]
compound = "C=C(NC(=O)c1ccc2c(n1)-c1nc(oc1C)C(C)NC(=O)c1csc(n1)C(C)NC(=O)c1nc(oc1C)CNC(=O)C(C(C)C)NC(=O)c1csc-2n1)C(N)=O (stereo not drawn) [Antibiotic 10381w]"
reported_value = "> 100"

[[record]]
compound = "C=C(NC(=O)c1ccc2c(n1)-c1coc(n1)C(=C)NC(=O)C(=C)NC(=O)c1nc(oc1C)C(=CC)NC(=O)c1csc(n1)C(OC)NC(=O)c1nc(oc1C)C(=CC(C)O)NC(=O)C(C(C)O)NC(=O)c1csc-2n1)C(N)=O (stereo not drawn) [Antibiotic 10381y]"
reported_value = "< 0.2"


Kindly consider the entry below.
Query: Name the recorded Minimal Inhibitory Concentration (bioactivity data) of the compound listed here: C=C(NC(=O)C(=C)NC(=O)C(=C)NC(=O)c1ccc2c(n1)-c1nc(oc1C)C(C)NC(=O)c1csc(n1)C(C)NC(=O)c1nc(oc1C)CNC(=O)C(C(C)C)NC(=O)c1csc-2n1)C(N)=O (stereo not drawn) [Antibiotic 10381x]
Response: 25.0

---

# Test system: R. flavefaciens
# Format: cell-based
# experimental.context: strain C94; Table IV (separate study)
Would you kindly list Minimal Inhibitory Concentration (bioactivity data) for each of these molecules?
One number for each entry.

# example entries with known answers
[[record]]
molecule = "C=C(NC(=O)c1ccc2c(n1)-c1coc(n1)C(=C)NC(=O)C(=C)NC(=O)c1nc(oc1C)C(=CC)NC(=O)c1csc(n1)C(OC)NC(=O)c1nc(oc1C)C(=CC(C)O)NC(=O)C(C(C)O)NC(=O)c1csc-2n1)C(N)=O (stereo not drawn) [Antibiotic 10381y]"
reported_value = 0.8

[[record]]
molecule = "C=C(NC(=O)c1ccc2c(n1)-c1nc(oc1C)C(C)NC(=O)c1csc(n1)C(C)NC(=O)c1nc(oc1C)CNC(=O)C(C(C)C)NC(=O)c1csc-2n1)C(N)=O (stereo not drawn) [Antibiotic 10381w]"
reported_value = 100


I have 3 molecules here; please give me Minimal Inhibitory Concentration (bioactivity data) for each one.
1. C=C(NC(=O)C(=C)NC(=O)C(=C)NC(=O)c1ccc2c(n1)-c1coc(n1)C(=C)NC(=O)C(=C)NC(=O)c1nc(oc1C)C(=CC)NC(=O)c1csc(n1)CNC(=O)c1nc(oc1C)C(=CC(C)O)NC(=O)C(C(C)O)NC(=O)c1csc-2n1)C(N)=O (stereo not drawn) [Antibiotic 10381pre-b]
2. C=C1NC(=O)c2nc(oc2C)C(=CC)NC(=O)c2csc(n2)C(OC)NC(=O)c2nc(oc2C)C(=CC(C)O)NC(=O)C(C(C)O)NC(=O)c2csc(n2)-c2ccc(C(N)=O)nc2-c2coc(n2)C(=C)NC1=O (stereo not drawn) [Antibiotic 10381v]
3. C=C(NC(=O)C(=C)NC(=O)C(=C)NC(=O)c1ccc2c(n1)-c1coc(n1)C(=C)NC(=O)C(=C)NC(=O)c1nc(oc1C)/C(=C/C)NC(=O)c1csc(n1)C(OC)NC(=O)c1nc(oc1C)/C(=C/C(C)O)NC(=O)[C@H]([C@@H](C)O)NC(=O)c1csc-2n1)C(N)=O (stereo partly drawn) [Antibiotic 10381b, sulfomycin I, reference compound]

Response:
1: 25.0; 2: 25.0; 3: 0.8
